Ki values by entry
Target: L-lactate dehydrogenase A chain (Homo sapiens)
Assay: Competitive inhibition of human LDH-A using pyruvate as substrate after 5 mins by calorimetric assay relative to control
reported metric: Ki

>  <smiles entry>
O=C(O)c1cc2c(C(F)(F)F)cc(-c3ccccc3)cc2n1O

>  <result>
4.7 µM

$$$$
>  <smiles entry>
O=C(O)c1cc2cc(-c3ccccc3)ccc2n1O

>  <result>
15.7 µM

$$$$
>  <smiles entry>
O=C(O)c1cc2ccc(-c3ccccc3)cc2n1O

>  <result>
35.4 µM

$$$$

###

Target: L-lactate dehydrogenase A chain (Homo sapiens)
Assay: Inhibition of human LDH-A using pyruvate as substrate and NADH as cofactor at 125 uM after 5 mins by calorimetric assay relative to control

>  <smiles entry>
O=C(O)c1cc2cc(-c3ccccc3)ccc2n1O

>  <inhibition>
99%

$$$$
>  <smiles entry>
COC(=O)c1cc2ccc(-c3ccccc3)cc2n1O

>  <inhibition>
4%

$$$$
>  <smiles entry>
O=C(O)c1cc2c(C(F)(F)F)cc(-c3ccccc3)cc2n1O

>  <inhibition>
87%

$$$$
>  <smiles entry>
O=C(O)c1cc2c(Br)cccc2n1O

>  <inhibition>
32%

$$$$
>  <smiles entry>
O=C(O)c1cc2ccc(-c3ccccc3)cc2n1O

>  <inhibition>
84%

$$$$
>  <smiles entry>
O=C(O)c1cc2ccc(-c3nn[nH]n3)cc2n1O

>  <inhibition>
11%

$$$$

Recorded values, source ChEMBL document CHEMBL1687923.
